Tested on: KRAS-mutant PDC multicell tumor spheroid viability
ASSAY_OVERVIEW: Anticancer human tumor 521955-158-R2-J5-PDC patient-derived pancreatic carcinoma cell line growth inhibition [KRAS2]
TEST_SETTINGS: curve of first compound; second compound 0.1 µM
Description: Multicellular complex tumor spheroid response to RAS pathway inhibitors in combination with a targeted agents in patient-derived cell lines with oncogenic KRAS variants from multiple cancer types A high-throughput screen of multi-cell type tumor spheroids was designed to identify active combinations of targeted small molecules and KRAS pathway inhibitors. […] Compounds. […] If the clinical Cmax for an agent had not been determined, the highest concentration tested was 10 microM. […]
pIC50: −log10 of the molar value.
VALUE_KIND: pIC50

Kindly note the recorded pIC50 for CC(C)NCC(C(=O)N1CCN(c2ncnc3c2C(C)CC3O)CC1)c1ccc(Cl)cc1 (stereo not drawn) + CNCc1ccccc1-c1csc(C(C)Nc2nc(C)nc3cc(OC)c(OC)cc23)c1 , which is < 5.00

***
pIC50 in this record for CC1OCC2(CCN(c3cnc(Sc4ccnc(N)c4Cl)c(N)n3)CC2)C1N (stereo not drawn) + CNCc1ccccc1-c1csc(C(C)Nc2nc(C)nc3cc(OC)c(OC)cc23)c1 : < 5.00

Lab book: pIC50 of CC1OCC2(CCN(c3cnc(Sc4ccnc(N)c4Cl)c(N)n3)CC2)C1N (stereo not drawn) + C=CC(=O)N1CCN(c2nc(=O)n(-c3c(C)ccnc3C(C)C)c3nc(-c4c(O)cccc4F)c(F)cc23)C(C)C1 noted as < 5.00

====

System: KRAS-mutant PDC multicell tumor spheroid viability
ASSAY_OVERVIEW: Anticancer human tumor 521955-158-R2-J5-PDC cell line growth inhibition [KRAS2];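 further: viability read after seven days of drug exposure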
TEST_SETTINGS: second compound 0.1 µM; first compound 3.16 µM; stronger effect = lower value
VALUE_KIND: viability, T/C (%)
Numbers only here, please. The scale is %.

Known viability, T/C results, listed for orientation:
Note to self: viability, T/C of COC(=O)c1ccc2c(C(=Nc3ccc(N(C)C(=O)CN4CCN(C)CC4)cc3)c3ccccc3)c(O)[nH]c2c1 + C=CC(=O)N1CCN(c2nc(=O)n(-c3c(C)ccnc3C(C)C)c3nc(-c4c(O)cccc4F)c(F)cc23)C(C)C1 with KRAS-mutant PDC multicell tumor spheroid viability was 21

Considering O=C(c1cc(Cc2n[nH]c(=O)c3ccccc23)ccc1F)N1CCN(C(=O)C2CC2)CC1 + C=CC(=O)N1CCN(c2nc(OCC3CCCN3C)nc3c2CCN(c2cccc4cccc(C)c24)C3)CC1CC#N , its viability, T/C with KRAS-mutant PDC multicell tumor spheroid viability was recorded as 78.5

New cases:
Fill in: KRAS-mutant PDC multicell tumor spheroid viability viability, T/C for COc1cc(Nc2ncc3c(n2)-c2ccc(Cl)cc2C(c2c(F)cccc2OC)=NC3)ccc1C(=O)O + CC1OCC2(CCN(c3cnc(Sc4ccnc(N)c4Cl)c(N)n3)CC2)C1N = 37.2

// molecule CC(=O)OC12COC1CC(O)C1(C)C(=O)C(O)C3=C(C)C(OC(=O)C(O)C(NC(=O)OC(C)(C)C)c4ccccc4)CC(O)(C(OC(=O)c4ccccc4)C21)C3(C)C (stereo not given) + CNCc1ccccc1-c1csc(C(C)Nc2nc(C)nc3cc(OC)c(OC)cc23)c1 , assay KRAS-mutant PDC multicell tumor spheroid viability, viability, T/C value: 20.3

// molecule CC1(C)CCC(CN2CCN(c3ccc(C(=O)NS(=O)(=O)c4ccc(NCC5CCOCC5)c([N+](=O)[O-])c4)c(Oc4cnc5[nH]ccc5c4)c3)CC2)=C(c2ccc(Cl)cc2)C1 + CNCc1ccccc1-c1csc(C(C)Nc2nc(C)nc3cc(OC)c(OC)cc23)c1 , assay KRAS-mutant PDC multicell tumor spheroid viability, viability, T/C value: 104
